# Test system: HOP-62 NSCLC
# EXPERIMENT SUMMARY: NCI tumour cell line growth inhibition, 48 h
Overview of reported TGI across a group of compounds:
Field: numeric (µM). Do not append units.

Study these solved cases before continuing.
{"ITEM SMILES": "CC(C)Oc1ccc2cc(-c3nn(CC4CCNCC4)c4ncnc(N)c34)ccc2c1", "TGT": "HOP-62 NSCLC", "TGI [µM]": 31.4}
{"ITEM SMILES": "O=C(Nc1nc(C23CC4CC(CC(C4)C2)C3)cs1)c1cc2ccc(O)cc2oc1=O", "TGT": "HOP-62 NSCLC", "TGI [µM]": 36.8}

The record that follows has no TGI shown yet.
Given `Cc1ncc(C(=O)Nc2ccc(CN3CCN(C)CC3)c(C(F)(F)F)c2)cc1C#Cc1cnc(N)c2ccncc12` , state its recorded TGI.
3.18

====

Listed here: items and their measured TGI.
# Tested on: HL-60(TB) leukemia
# EXPERIMENT SUMMARY: NCI tumour cell line growth inhibition, 48 h

What TGI value was documented for this molecule, `COc1ccc(Nc2nnc(-c3cc(O)ccc3O)s2)cc1` ?
> 50 µM

Can you look up the measured TGI of `N#Cc1c(N)nc2n[nH]c(N)c2c1-c1ccc(Cl)cc1` for me?
> 100 µM

Name the recorded TGI for `CCCC(=O)Nc1cc2c3c(c1)CCCN3CCC2` .
> 10 µM

====

Parameter: TGI. Scope: all listed entries.
# System: SK-MEL-28 melanoma
# EXPERIMENT SUMMARY: NCI tumour cell line growth inhibition, 48 h

The examples below pair each entry with its known result.
{"ITEM SMILES": "CCOC(=O)C(Cc1ccc(CCCC(=O)NCCC(=O)Nc2ccc3nc(C)sc3c2)cc1)C(=O)OCC", "TGI": "> 96.7 µM"}
{"ITEM SMILES": "O=c1cnn(C/C=C/CO)c(=O)[nH]1", "TGI": "> 100 µM"}
{"ITEM SMILES": "N#C/C1=C(\\N)CCSSSC1", "TGI": "> 100 µM"}

Request the reported TGI associated with `NC(=O)C12CC3CC(CC(F)(C3)C1)C2`
> 100 µM

====

# System: COLO 205 colon
# EXPERIMENT SUMMARY: NCI tumour cell line growth inhibition, 48 h
MEASURED QUANTITY: TGI (µM)
Quick reminder: number only, in µM, skip the unit.

Name the recorded TGI for `Cc1ncc(C(=O)Nc2ccc(CN3CCN(C)CC3)c(C(F)(F)F)c2)cc1C#Cc1cnc(N)c2ccncc12` .
2.04

Which TGI value belongs to COc1ccc(CC2NCCc3c2[nH]c2ccccc32)cc1 (centres undefined) ?
40.6

Which TGI value is on record for `CCOC(=O)CC[C@H](NC(=O)[C@H](N)Cc1ccc(N(CCCl)CCCl)cc1)C(=O)OCC` ?
52.9

Fill in: TGI of `C[C@@H]1CC[C@@H]2[C@@H]1[C@H](OC(=O)/C=C/c1ccccc1)[C@]1(C3CCCCC3)C[C@@H](OC(=O)CO)[C@@]2(C)O1` is ___
11.1

TGI lookup needed for `COc1ccc(C(=O)/C=C/c2cc(-c3cc(OC)c(OC)c(OC)c3)n[nH]2)cc1OC` , thanks.
3.21

====

# System: COLO 205 colon
# EXPERIMENT SUMMARY: NCI tumour cell line growth inhibition, 48 h
Reported TGI is given for each of the following compounds.

{"ITEM SMILES": "COc1ccc2cc(/C=N/NC(=O)Nc3ccccc3)ccc2c1", "TGI": "> 100 µM"}
{"ITEM SMILES": "CC(=O)c1sc(Nc2nnc(-c3ccc(-c4nnc(Nc5nc(C)c(C(C)=O)s5)o4)cc3)o2)nc1C", "TGI": "> 100 µM"}
{"ITEM SMILES": "CCCCNC(=S)Nc1nc(C(=O)NNC(=S)Nc2ccccc2)cs1", "TGI": "> 100 µM"}

Note: attention shifts to another entry.
For the record `O=C1/C(=C/c2cccc(Cl)c2Cl)N=C(c2ccccc2)N1C1CC1` , what value of TGI is listed for COLO 205 colon?
> 50 µM
